Origin of the recorded values: the NIST ThermoML archive (doi:10.1016/j.fluid.2010.05.010)

- ASSAY DETAILS: activity coefficient (dimensionless); of the first substance listed, at infinite dilution; xn = mol fraction of the nth substance listed
- ASSAY CONTEXT: 298.15 K; 101 kPa; Liquid; Inert gas stripping; x1 = 0
ASSAY READOUT: activity coefficient

| COMPOUND | ENDPOINT RESULT |
| --- | --- |
| C=C(C)C(=O)OC [methyl methacrylate] + O | 380 |
| COC(=O)OC [dimethyl carbonate] + O | 48 |
| CCOC(=O)OCC [diethyl carbonate] + O | 374 |
| C=COC(C)=O [vinyl acetate] + O | 181 |

---

- ASSAY DETAILS: activity coefficient (dimensionless); of the first substance listed, at infinite dilution; xn = mol fraction of the nth substance listed
- ASSAY CONTEXT: 323.15 K; 101 kPa; Liquid; Inert gas stripping; x1 = 0
ASSAY READOUT: activity coefficient

| COMPOUND | ENDPOINT RESULT |
| --- | --- |
| COC(=O)OC [dimethyl carbonate] + O | 50.9 |
| C=COC(C)=O [vinyl acetate] + O | 194 |
| C=C(C)C(=O)OC [methyl methacrylate] + O | 403 |
| CCOC(=O)OCC [diethyl carbonate] + O | 394 |
